Source: the nanobody polyreactivity screen of Harvey et al. (2022)

# Protocol Notes: yeast display, Sf9 membrane polyspecificity reagent, FACS + sequencing; frameworks hold sequencing errors
Test Readout: polyreactivity (PSR sort gate)

QUERY: Which polyreactivity (PSR sort gate) reading was recorded for the sequence QVQLVESGGGLVQAGGSLRLSCAASGSIFYTNAMGWYRQAPGKEREMVATITSSTGSTNYADSVKGRFTISRDNAKITVYLQMNSLKPEDTAVYYCAKRDGYWVYYQMDYWGQGTQVTVSS ?
RESULT: low polyreactivity

QUERY: Further, for QVQLVESGGGLVQAGGSLSLSCAASGSTFYRYAKGWYRQAPGKERELVAAISTRGGSTYYADSVKGRFTISRDNAKNTVYLQMNSLKPEDTAVYYCAAKSGSPDDYDYWGHGTQVTVSS ?
RESULT: high polyreactivity

QUERY: Further, for QVQLVESGGGLVQAGGGLRLSCAASGFIFSLYAMGWYRQAPGKERELVAAISKRGGSTNYADSLKGRFTISRDNAKNTVYLQRNSLKPDVTAVYYCAATRNYYGRYDYWGQGTQVTVSS ?
RESULT: high polyreactivity

QUERY: Further, for QVQLVESGGGLVQAGGSLRLSCAASGRTIRHNAMGWYRQAPGKERELVAAISRSGGSTYYADSVKGRFTISRDNAKNTVYLQMNSLKREDTAVYYCAAGYHGYDWGQGTQVTVSS ?
RESULT: high polyreactivity

QUERY: Further, for QVHLVESGGVLVQAGGSLRLSCAASGFILYFNAMGWYIQAPGKERELVAVNTFRSGSTYYADSVKGRFTISRDNAKNTVNLQMNSLKPEDTAVYYCNAQSVLLSLRVELREPHEYWGHGTQVTVSS ?
RESULT: low polyreactivity

Next:
QUERY: Which polyreactivity (PSR sort gate) reading was recorded for the sequence QVQLVESGGGLVQAGGSLRLSCAASGFTFPDYAMGWYRQAPAKERELVAVITSGGSTYYADSVKGRFTISRDNAKNTVYLQMNSLKPEDTAVYYCATDFWDDDVEQRYDYWGQGTQVTVSS ?
RESULT: low polyreactivity

QUERY: Further, for QVQLVESGGGLVQAGGSLRLSCAASGFIFGWYAMGWYRQAPGKERELVAVIRSGGRTNYADSVKGRFTISRDNAKNTVYLQMNSLKPEDTAVYDCNAVGGRGYGGGFWGQGTQVTVSS ?
RESULT: high polyreactivity

QUERY: Further, for QVQLVESGGGLVQAGGSLRLSCAASGRTFGYYAMGWYRQAPGKERELVAAISWSGGSTRYADSVKGRFTISRDNAKNTVYFQLNSLKPEDTAVYYCAADSWYSFAGVYRVYGEDYWGQGTQVTVSS ?
RESULT: high polyreactivity

QUERY: Further, for QVQLVESGGGLVQAGGSLRLCCAASGFICGKYALGWYRQAAGNEWVLVAAITSDGRTYYADSVKGRFTISRDNPKNTVYVQMNSLKPEDTAVYYCAVDYYWYSYSGYDDYWGQGTQVTVSS ?
RESULT: high polyreactivity

QUERY: Further, for QVQLVESGGGLVQAGGSLRLSCAASGFTFPRYAMGWYRQAPGKERELVAAITSGDRTYYADSVKGRFTISRDNAKNTVYLQMNSLKPEDTAVYYCARVPDTEGEYWGQGTQVTVSS ?
RESULT: high polyreactivity

QUERY: Further, for QVQLVESGGGLVQAGGSLRLSCAASGIIVDFYAMGWYRQAPGKERELVAGISWGGGTTYYADSVKGRFTISRDNAKNTVYLQMNSLKPEDTAVYYCAAVAFQTRYYYWGQGTQVTVSS ?
RESULT: high polyreactivity

QUERY: Further, for QVQLVESGGGLVQAGGSLRLICAAYGSTFVTNVMGWYRQAPGKERELVAAISARGGSTYYADSVKGRFTISRDNAKNTVYLQMNSLKPEDTAVYYCNAVVRPWQSYYYWGQGTQVTVSS ?
RESULT: high polyreactivity

QUERY: Further, for QVQLVESGGGLVQAGGSLRLSCAASGFIFRVYGMGCYRQATAKERELVAAMTGGCGSTYYADSVKGRFTISRDNAKNTVYLQMNSLKPEDTAVYYCAAVRYSGVRYRYGIYSDTMDYWGQGTQVTVSS ?
RESULT: high polyreactivity

QUERY: Further, for QLQLVESGGGLVQAGGSLRLSCAASGLIFYDNMAWSRPAPAKEMELVAAISSSGGSTSYADSVKGRFSISRDNAKNTVYLQLISLKPEDTAVYYCAADSYPAYLGFVGFDYWGQGTQVTVSS ?
RESULT: low polyreactivity

QUERY: Further, for QVQLVESGGGLVQAGGSLRLSCAASGLTIWRYAMGWYRQAPGKEREFVATISQNGGRTYYADSVKGRFTISRDNAKNTVYLQMQSLKPEDTAVYYCAADDWRWGYDYWGQGTQVTVSS ?
RESULT: high polyreactivity

QUERY: Further, for QVQLVESGGGLVQAGGSLRLSCSASGYIFSSNTMGWYRQAPGTERELVAGISGRTGRTYYADSVKGRFTISRDNAKNTVYLQMNSLKPEDTAVYYCARVPYQGYPRRRLSGYYYWGQGTQVTVSS ?
RESULT: high polyreactivity

QUERY: Further, for QVQLVESGGGLVQAGGSLRLSCAASGSNFGWYTMGWYRQAPGKERELVAAITSRGTRTSYADSVKGRFTISRDYAKNTVYLQMNSLKPEDTAVYYCAARVFRGLGEYYWGQGTQVTVSS ?
RESULT: high polyreactivity

QUERY: Further, for QVQLVESGGGLDQAGGSLRLSCAASGSTVVRYAMGWYRQAPGKEREFVATISRRGGSTYYADSVKGRFTISRDNAKNTVYLQMNSLKPEDTAVYYCAKQGEAALPYIYDHWGQGTQVTVSS ?
RESULT: low polyreactivity

QUERY: Further, for QVQLVESGGGLVQAGGSLRLSCAASGSIFYWYAMGWYRQAPGKERELVAAISSGGSTNYADSVKGRFTISRDNAKNTVYLQMNSLKPEDTAVYYCNADVPVRYGPIYFRRLDYWGQGTQVTVSS ?
RESULT: low polyreactivity

QUERY: Further, for QVQLVESGGGLVQAGGSLRLSCAASGSTFAAYAMGWYRQAPGKERELVAAISATGGSTYYADSVKGRFTISRDNAKNTVYLQMNRLKPEDTAVYYCAADYPSWYGYRYYYWGQGTQVTVSS ?
RESULT: high polyreactivity

QUERY: Further, for QVQLVESGGGLVQAGGSLRLICAASGITFEVYAMGRYRLAPGKEMELVAVITSVGSTNYADSVKGRFTISRDNAKNTVYLQMNSLKPEDPAVYYCAALKWTVRRFNPYTYYRYDYWGQGTQVTVSS ?
RESULT: low polyreactivity

----------
# Protocol Notes: yeast display, Sf9 membrane polyspecificity reagent, FACS + sequencing; frameworks hold sequencing errors
Test Readout: polyreactivity (PSR sort gate)

QUERY: Which polyreactivity (PSR sort gate) reading was recorded for the sequence QVQLVESGGGLVQAGGSLRLSCAPSGRTFSVNDMGWYRQAPGKERELVAAISFSGGSTYYADSVKGRFTISRDNAKNTVYLQMNSLKPEDTAVYYCAAEAYPSWFYVITGFGIYDYWGQGTQVTVSS ?
RESULT: high polyreactivity

QUERY: Further, for QVQLVESGGGLVQAGGSLRLSCAASGFTFTAYAMGWYRQEPGKERELVAAITGTGGSTKYADSVKGRFTISRDNATNTVYLQMNSLKPEDTAVYYCAKRYRLRGRYDYWGQGTQVTVSS ?
RESULT: high polyreactivity

QUERY: Further, for QVQLVESGGGLVQAGGRLRLSCAASGTIFDFYAMGWYRQAPGKERELVATITASGGSTYYADSVKGRFTISRDNAKNTVYLQMKSLKPEDTAVYYCAAVGPHWYGQGWALYRFEYWGQGTQVTVSS ?
RESULT: low polyreactivity

QUERY: Further, for QVQLVESGGGLVQAGGSLRLICAASGSTFRKYVMGWYRQAPGKERELVAAITKNGGSTYYADSVKGRFTISRDNAKNTVYLQMNSLKPEDTAVYYCATLRTGRVGNQDYDYWGQGTQVTVSS ?
RESULT: high polyreactivity

QUERY: Further, for QVQLVESGGGLVQAGGSLRLSCAASGRIFRHNTLGWYRQAPGKEREFVAAISRNGGITYYADSVKGRFTISRDNAKNTVYLQMNSLKPEDTAVYYCNAYTYRQNDYWGQGTQVTVSS ?
RESULT: high polyreactivity

QUERY: Further, for QVQLVESGGGLVQAGGSLRLSCAASGFTFFSNAMGWYRQAPGKERELVAAITSSGGSTYADSVKGRFTISRDNAKNTVYLQMNSLKPEDTAVYYCAADAEAPPGGFKEYDYWGHGTQVTVSS ?
RESULT: low polyreactivity

Next:
QUERY: Which polyreactivity (PSR sort gate) reading was recorded for the sequence QVQLVESGGGLVQAGGSIRLSCDHSGRNLYRNSMGWYRQAPEKERELVARITSSGASTYYADSVKGRFTISRDNAKNTVTIQMNSLKQEYTAVYYCAAQYLSRRYGPYYTYNYRGQGTQVTVSS ?
RESULT: high polyreactivity

QUERY: Further, for QVQLVESRGGLVPAGGSLRLSCAASGSTVRDYTMGRYRQAPGKEREVGAAITRRSASTYYADSVKGRFTISRDNAKNTVYLQLNSLKPEDTAVYYCAVRTNGPFEYWGQGTQVTVSS ?
RESULT: high polyreactivity

QUERY: Further, for QVQLVESGGGLVQAGGSLRLSCAASGITLSIYAMGWYRQAPGKERELVAAINGNGGSTYYADSVKGRFTISRDNAKNTVYLQMNSLKPEDTAVYYCAVTDYVYEHDDYWGQGTQVTVSS ?
RESULT: low polyreactivity

QUERY: Further, for QVQLVESGGGLVQAGGSLRLSCAASGSIFDLYAMGWYRQAPGKERELVAGISYSGGSTYYADSVKGRFTISRDNAKNTVYLQMNSLKPEDTAVYHCADDGGWRYHPFSSLFDYWGQGTQVTVSS ?
RESULT: low polyreactivity

QUERY: Further, for QVQLVESGGGLVQAGGSLRLSCAASGFTFAYDAMGWYRQAPGKERELVAAIRRRGGITYYADSVKGRFTISRDNAKNTVYLQMNSLKPEDTAVYYWNAVRSYPAGYDSWGQGTQVTVSS ?
RESULT: low polyreactivity
